# system-name: T1, human Fibroblast Activation Protein (FAP), soluble antigen (human, UniProt Q12884 26-760, biotinylated when immobilized on streptavidin sensors)
# T1 construct: also called hFAP; biotinylated FAP
# T1 sequence (Q12884 26-760 limits assumed): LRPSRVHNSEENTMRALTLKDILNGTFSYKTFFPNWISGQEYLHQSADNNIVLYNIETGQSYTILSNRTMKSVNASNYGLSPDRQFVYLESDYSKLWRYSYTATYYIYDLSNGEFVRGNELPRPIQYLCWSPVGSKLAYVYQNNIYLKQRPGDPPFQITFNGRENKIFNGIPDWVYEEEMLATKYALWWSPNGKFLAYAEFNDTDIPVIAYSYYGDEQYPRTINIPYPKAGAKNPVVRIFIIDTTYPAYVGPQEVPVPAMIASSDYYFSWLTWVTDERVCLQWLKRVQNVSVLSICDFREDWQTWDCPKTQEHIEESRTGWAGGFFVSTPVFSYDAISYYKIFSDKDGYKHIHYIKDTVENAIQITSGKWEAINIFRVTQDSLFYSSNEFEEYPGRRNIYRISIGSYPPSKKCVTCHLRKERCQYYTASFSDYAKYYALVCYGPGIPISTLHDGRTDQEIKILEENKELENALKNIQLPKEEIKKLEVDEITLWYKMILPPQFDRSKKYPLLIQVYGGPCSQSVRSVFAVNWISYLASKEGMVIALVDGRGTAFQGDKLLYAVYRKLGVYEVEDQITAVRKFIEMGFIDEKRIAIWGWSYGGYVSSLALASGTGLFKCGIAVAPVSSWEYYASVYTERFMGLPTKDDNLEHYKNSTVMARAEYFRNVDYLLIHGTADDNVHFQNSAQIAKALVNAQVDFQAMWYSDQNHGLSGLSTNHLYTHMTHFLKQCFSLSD
# assay-text: BLI per 6.1.3, human FAP;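 further: biolayer interferometry with immobilized antigen on sensors, antibody association up to 240 s then dissociation up to 420 s, reference-subtracted, global 1:1 fit with unlinked Rmax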
This section presents binders with their documented koff values.
recorded-metric: koff (s⁻¹)

INSERT INTO measurements (binder, assay_result) VALUES
  ('872-5 VL A91G/T92R (antibody, V domains shown, BLI per 6.1.3) VH: EVQLVESGGGLVQPGGSLRLSCAASGFTFRGYIMSWVRQAPGKGLEWVSWISPEGSRTGYADSVKGRFTISRDNSKNTLYLQMNSLRAEDTAVYYCARLQYGTWFDYWGQGTLVTVSS VL: DIQMTQSPSSLSASVGDRVTITCRASQSISSYLNWYQQKPGKAPKLLIYAASSLQSGVPSRFSGSGSGTDFTLTISSLQPEDFATYYCQQGRLLLPTFGQGTKVEIKR', 0.000411),
  ('872-5 VH S52G (antibody, V domains shown, BLI per 6.1.3) VH: EVQLVESGGGLVQPGGSLRLSCAASGFTFRGYIMSWVRQAPGKGLEWVSWIGPEGSRTGYADSVKGRFTISRDNSKNTLYLQMNSLRAEDTAVYYCARLQYGTWFDYWGQGTLVTVSS VL: DIQMTQSPSSLSASVGDRVTITCRASQSISSYLNWYQQKPGKAPKLLIYAASSLQSGVPSRFSGSGSGTDFTLTISSLQPEDFATYYCQQATLLLPTFGQGTKVEIKR', 0.00138),
  ('anti-FAP antibody 872-5 (antibody, V domains shown, monovalent Fab-Fc (knob-in-hole) for KD per 6.1.3; also called IgG 5; FAP5) VH: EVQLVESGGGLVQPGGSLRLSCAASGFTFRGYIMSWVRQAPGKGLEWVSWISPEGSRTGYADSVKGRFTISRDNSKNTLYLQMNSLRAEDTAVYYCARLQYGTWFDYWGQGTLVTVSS VL: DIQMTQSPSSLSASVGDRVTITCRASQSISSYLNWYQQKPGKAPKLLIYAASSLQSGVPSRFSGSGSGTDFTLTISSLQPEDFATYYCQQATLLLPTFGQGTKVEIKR', 0.00201);
